- System: RXF 393
- experimental-details: NCI tumour cell line growth inhibition, 48 h
Activity calls are given as the source filed them. No stated cut-off is given here; in the data, active = GI50 up to about 1.1 µM and inactive = higher.
Classes used: y for active, n for inactive

| molecule | class-label |
| --- | --- |
| Cc1cc(S(=O)(=O)NC2=Nc3ccc(Cl)cc3C(c3ccccc3)N2)c(S)cc1Cl (stereo not given) | n |
| [N-]=[N+]=NC(c1cn(C2CC(O)C(CO)O2)c(=O)[nH]c1=O)C(Br)I (stereo not given) | n |
| NC(CCc1ncc(C(=O)O)s1)C(=O)O (stereo not given) | n |
| COc1cccc(-c2cc(=O)c3cc(N4CCCCC4)ccc3[nH]2)c1 | y |
| Nc1ccc(/N=N/c2ccc(/C=C/c3ccc(/N=N/c4ccc(N)c5ccc(S(=O)(=O)O)cc45)cc3S(=O)(=O)O)c(S(=O)(=O)O)c2)c2cc(S(=O)(=O)O)ccc12 | n |
| NNC(=O)c1ccc(OCc2nc3ccccc3[nH]2)cc1 | n |
| NC1CNC(=O)c2c(Cl)sc(Cl)c21 (stereo not given) | n |
| NCCN1C(=O)c2ccccc2C1c1ccc(Cl)cc1 (stereo not given) | n |
| COC1=CC23C=CC1[C@@H](c1ccccc1)C2=C(C)C(=O)N3C(=O)NC1CCCCC1 (stereo not given in full) | n |
| O=C1C2Cc3ccccc3CN2C(=O)N1CN1CCN(CN2C(=O)C3Cc4ccccc4CN3C2=O)CC1 (stereo not given) | n |

Data provenance is ChEMBL document CHEMBL1201862.
